Test system: Collinsella aerofaciens
Assay: growth AUC relative to DMSO control (median of replicates) (fraction); higher = more growth (less inhibition), active = hit call of the paper
Conditions: 20 µM; 24 h
Readout Kind: growth AUC
Please give only the number in your answer, with no unit.

Molecule	System Under Test	growth AUC
CCOc1cc(C(C)(C)C)ccc1C1COC(c2c(F)cccc2F)=N1 (stereo not drawn)	Collinsella aerofaciens	0.987
OC[C@@H](O)[C@H]1O[C@@H]2O[C@H](C(Cl)(Cl)Cl)O[C@@H]2[C@H]1O (mixture of isomers)	Collinsella aerofaciens	0.975
CCOP(=O)(NC(C)C)Oc1ccc(S(C)(=O)=O)c(C)c1 (stereo not drawn)	Collinsella aerofaciens	1.01
Cc1cccc(C)c1N	Collinsella aerofaciens	0.985
CCOP(=S)(OCC)Oc1cc(Cl)c(Br)cc1Cl	Collinsella aerofaciens	0.98
CC(=NCc1ccc(Cl)nc1)NC#N	Collinsella aerofaciens	1.02

input: Need growth AUC of "CNC(=O)Oc1cccc2c1OC(C)(C)C2=O" , thanks.
output: 1.01

input: Also need "Cc1nc(N(C)C=O)nc(OC(=O)N(C)C)c1C" , thanks.
output: 0.992
